molecular target: Cif (Pseudomonas aeruginosa (strain UCBPP-PA14)); assay: Secondary screen (sextuplicate) with fluorogenic substrate CMNGC; format: biochemical; settings: secondary screen, 10 μM, plate number 6;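 also: purified enzyme assay in 96-well plates, 200 µL volume, fluorescence recorded each minute across a 60 min reaction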
Sequence (A0A0H2ZD27 25-319 limits assumed): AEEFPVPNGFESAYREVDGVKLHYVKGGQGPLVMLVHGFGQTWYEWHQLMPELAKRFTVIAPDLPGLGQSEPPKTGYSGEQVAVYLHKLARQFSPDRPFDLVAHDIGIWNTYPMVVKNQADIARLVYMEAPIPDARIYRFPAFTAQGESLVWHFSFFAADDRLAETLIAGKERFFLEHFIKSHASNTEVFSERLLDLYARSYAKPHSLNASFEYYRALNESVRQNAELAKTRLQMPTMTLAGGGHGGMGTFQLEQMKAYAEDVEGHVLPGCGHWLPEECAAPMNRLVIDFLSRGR
assay_readout: % Inhibition, plate 6 (%)
Unit % implied. Number only.

Below, each entry is followed by its recorded % Inhibition, plate 6 result.
CC(=O)[C@@]12O[C@](C)(c3ccccc3)O[C@@H]1C[C@H]1[C@@H]3CCC4=CC(=O)CC[C@]4(C)[C@H]3CC[C@@]12C [Algestone acetophenide]: −10
CC(=O)[C@H]1CC[C@H]2[C@@H]3CC=C4C[C@@H](OC(=O)CCC(=O)O)CC[C@]4(C)[C@H]3CC[C@]12C [Pregnenolone succinate]: 15
CCCCCCCCCCCCCCCC[N+](C)(C)C.[Br-] [Cetrimonium bromide]: 2
CC(O)CN1CCN(CC(=O)[O-])CCN(CC(=O)[O-])CCN(CC(=O)[O-])CC1.[Gd+3] (centres unmarked) [Gadoteridol]: 15

Turning now to a further record.
// fetch % Inhibition, plate 6; item: C[C@@H]1C[C@H]2[C@@H]3CCC4=CC(=O)C=C[C@]4(C)[C@@]3(F)[C@@H](O)C[C@]2(C)[C@H]1C(=O)CO [Desoxymetasone] ; system: Cif (Pseudomonas aeruginosa (strain UCBPP-PA14))
41
